# Test system: CP194
# RUN_DESCRIPTION: qHTS profiling for inhibitors of Plasmodium falciparum proliferation (AID 504749); note: nearly all actives have a fitted effect of over 60% in size
# CONDITIONS_USED: P. falciparum in erythrocytes, SYBR Green DNA, 72 h; series mostly up to 28.7 µM
Records with an inconclusive call do not appear. Activity calls are given as the source filed them. Calls come from the whole dose curve; as a rule, active = well fitted inhibition curve with a large enough effect; inconclusive = small, poorly fitted or top-dose-only effect; inactive = flat fitted curve, though single readings scatter.
# valid calls are YES = active, NO = inactive; nothing else

Please review the following examples before continuing.
COMPOUND	ASSAYED_SYSTEM	GROUP
CN1CCN(C(=O)O[C@H]2c3nccnc3C(=O)N2c2ccc(Cl)cn2)CC1	CP194	NO
CCCN1CCC[C@@H]2Cc3[nH]ncc3C[C@H]21	CP194	NO
Oc1cc(Cl)ccc1Oc1ccc(Cl)cc1Cl	CP194	YES
Cn1c(CCCC(=O)O)nc2cc(N(CCCl)CCCl)ccc21	CP194	NO
CN(C)CCc1ccc(O)cc1	CP194	NO
CC1NCCOC1c1ccccc1 (stereo not given)	CP194	NO

Query: recorded result category for O=C1NCN(c2ccccc2)C12CCN(CC1COc3ccccc3O1)CC2 (stereo not given) in this test
NO

Field: outcome | Entry: O=C(O)c1ccc2[nH]cc(CCCCN3CC=C(c4ccccc4)CC3)c2c1
NO

Short answer needed: outcome of this test for CC[N+]1(C)CCCC(OC(=O)C(O)(c2ccccc2)c2ccccc2)C1 (stereo not given) ?
NO
